The measured values listed here are drawn from ChEMBL document CHEMBL4842350.

Target: UniProt:P08684
Sequence (P08684 whole entry): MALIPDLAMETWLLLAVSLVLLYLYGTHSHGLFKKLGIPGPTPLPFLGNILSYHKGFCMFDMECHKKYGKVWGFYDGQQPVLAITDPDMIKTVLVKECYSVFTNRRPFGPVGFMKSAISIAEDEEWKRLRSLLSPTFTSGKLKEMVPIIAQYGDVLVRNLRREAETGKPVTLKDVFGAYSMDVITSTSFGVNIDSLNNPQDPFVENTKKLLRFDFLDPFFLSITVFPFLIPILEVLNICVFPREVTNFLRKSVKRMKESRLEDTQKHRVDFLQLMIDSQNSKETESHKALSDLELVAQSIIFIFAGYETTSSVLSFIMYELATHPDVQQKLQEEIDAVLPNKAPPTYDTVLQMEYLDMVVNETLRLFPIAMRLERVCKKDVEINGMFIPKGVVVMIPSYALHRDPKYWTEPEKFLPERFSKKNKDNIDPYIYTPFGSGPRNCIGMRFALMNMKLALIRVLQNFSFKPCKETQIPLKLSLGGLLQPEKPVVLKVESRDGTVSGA
Test: Inhibition of recombinant human CYP3A4 expressed in Escherichia coli using VG as probe substrate incubated for 15 to 60 mins by fluorometric assay
Type: ADME
Assay endpoint: IC50 (µM)

[[record]]
chemical_smiles = "COCCNc1nc2cnc3cc(-c4c(C)noc4C)c(OC)cc3c2n1[C@H](C)c1ccccn1"
assay_endpoint = "IC50"
recorded_value = 7.9

[[record]]
chemical_smiles = "COC[C@@H](C)n1c(C2CCOCC2)nc2cnc3cc(-c4c(C)noc4C)c(OC)cc3c21"
assay_endpoint = "IC50"
recorded_value = 25.1


P. COc1cc2c(cc1-c1c(C)noc1C)ncc1nc(N(C)C)n(CC3CCOCC3)c12
Q. COCCNc1nc2cnc3cc(-c4c(C)noc4C)c(OC)cc3c2n1Cc1ccccn1
Sort P and Q by IC50 descending and give the first. Lab log: write the label of the selected item as the result.
Q
